Task for the reader: assign each of the following binders its reported pIC50.
- Target Entity: T1, mouse TEAD4(210-427) (mouse, UniProt Q62296 210-427)
- T1 construct: mouse TEAD4, residues 210-427; The tag was cleaved with 3C protease only for the crystallisation; nothing is said for SPR and FP; also called mTEAD4; source: E. coli BL21 DE3 RIL, purified (His Trap, SEC)
- T1 sequence (Q62296 210-427): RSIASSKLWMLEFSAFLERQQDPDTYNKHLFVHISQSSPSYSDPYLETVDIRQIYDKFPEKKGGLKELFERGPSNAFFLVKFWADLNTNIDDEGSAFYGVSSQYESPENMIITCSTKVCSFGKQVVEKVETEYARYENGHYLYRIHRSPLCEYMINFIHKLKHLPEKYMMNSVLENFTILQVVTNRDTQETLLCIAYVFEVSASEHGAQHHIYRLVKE
- Method Summary: fluorescence polarisation; competition: acetylated peptide titrated (50 µM-6 pM) against mTEAD4 (400 nM) with a FITC-labelled tracer peptide (10 nM; tracer not named); read after 1 h
- Details: both partners purified
Bridge positions count the residues as written; N and C are the ends. Ends that are not written are not given here.
Remember the convention: pIC50 equals -log10 of concentration in molar.

Query pIC50 for Ac-AVEDHFAKALGDTWLQIKAA (lactam 3-18, macrocyclic VGL4 two-helix motif 4E with one alanine; numbers count on: mouse VGL4 as in PDB 4LN0; Synthesised on Rink amide resin: C-terminal amide surmised; source: synthetic peptide) [peptide 14 (alanine scan of 4E), acetylated]
5.21

Query pIC50 for Ac-SVEDHFAKALGDTWLQAKAA (lactam 3-18, macrocyclic VGL4 two-helix motif 4E with one alanine; numbers count on: mouse VGL4 as in PDB 4LN0; Synthesised on Rink amide resin: C-terminal amide surmised; source: synthetic peptide) [peptide 26 (alanine scan of 4E), acetylated]
5.13

Query pIC50 for Ac-SVEDHFAAALGDTWLQIKAA (lactam 3-18, macrocyclic VGL4 two-helix motif 4E with one alanine; numbers count on: mouse VGL4 as in PDB 4LN0; Synthesised on Rink amide resin: C-terminal amide surmised; source: synthetic peptide) [peptide 19 (alanine scan of 4E), acetylated]
6.55

Query pIC50 for Ac-SVEDHFAKALGDTWAQIKAA (lactam 3-18, macrocyclic VGL4 two-helix motif 4E with one alanine; numbers count on: mouse VGL4 as in PDB 4LN0; Synthesised on Rink amide resin: C-terminal amide surmised; source: synthetic peptide) [peptide 24 (alanine scan of 4E), acetylated]
7.00

Hello, the source for this data is paper PMC7591920, in case you need it.
